target: T1, human wt-ERβ LBD (estrogen receptor beta ligand-binding domain, amino acids 261-502) (human, UniProt Q92731 261-502); assay: fluorescence polarisation; fluorescence anisotropy; 4 nM fluorescein-SRC-1 NR2 peptide, LBD diluted 2-fold from 10 uM (ERα) or 20 uM (ERβ); with BPA at 20 uM (ERα) or 40 uM (ERβ); 20 mM Tris pH 8.0, 150 mM NaCl, 5 mM DTT, 10% glycerol; details: both partners purified
T1 construct: Cloned into pET-32a; N-terminal thioredoxine-hexahistidine tag removed with TEV protease; not shown: thioredoxin, N-terminal, cleaved; His6, N-terminal, cleaved
T1 sequence (Q92731 261-502): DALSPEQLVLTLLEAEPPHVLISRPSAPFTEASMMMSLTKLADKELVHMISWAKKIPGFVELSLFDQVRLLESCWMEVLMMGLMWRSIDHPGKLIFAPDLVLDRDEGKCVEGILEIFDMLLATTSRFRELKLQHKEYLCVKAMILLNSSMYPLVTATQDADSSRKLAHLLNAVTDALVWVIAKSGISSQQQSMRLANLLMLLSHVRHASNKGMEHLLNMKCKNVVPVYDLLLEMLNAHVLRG
Where no end group is shown, it is not given here. fluorescein = fluorescein label on the N-terminus of the peptide
Quantity Name: pKd
One number for each entry, as −log10 of the molar value.

// query Consider the binder fluorescein-RHKILHRLLQEGS (also called SRC-1 NR2 peptide; fluorescein-labeled SRC-1 NR2 peptide; source: bought: EZbiolab) [fluorescein-RHKILHRLLQEGS peptide corresponding to the NR box 2-binding motif of SRC-1] . State its measured pKd.
// result 5.88

The reported measurements were obtained from paper PMC4256047.
